test system: 475296-252-R-J1-PDC spheroid viability; assay: Anticancer human tumor 475296-252-R-J1-PDC patient-derived rectal carcinoma cell line growth inhibition [PI3K]; conditions: second compound 3.16 µM; first compound 0.1 µM; hits give low values; spheroids with HUVEC and MSC;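 note: spheroids exposed to agents for seven days before readout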

{"Compound": "Cn1ncnc1[C@H]1c2n[nH]c(=O)c3cc(F)cc(c23)N[C@@H]1c1ccc(F)cc1 + CC(Nc1ncnc2nc[nH]c12)c1cc2cccc(Cl)c2c(=O)n1-c1ccccc1", "viability, T/C (%)": 89.8}
{"Compound": "CC1(C)CCC(CN2CCN(c3ccc(C(=O)NS(=O)(=O)c4ccc(NCC5CCOCC5)c([N+](=O)[O-])c4)c(Oc4cnc5[nH]ccc5c4)c3)CC2)=C(c2ccc(Cl)cc2)C1 + Cc1nc(NC(=O)N2CCCC2C(N)=O)sc1-c1ccnc(C(C)(C)C(F)(F)F)c1", "viability, T/C (%)": 82}
{"Compound": "Cn1nccc1Nc1nccc(-c2ccn(C(CO)c3ccc(Cl)c(F)c3)c(=O)c2)n1 (stereo not given) + Cc1nc(NC(=O)N2CCCC2C(N)=O)sc1-c1ccnc(C(C)(C)C(F)(F)F)c1", "viability, T/C (%)": 89.3}
{"Compound": "CC1(C)CCC(Nc2ncc(C(F)(F)F)c(-c3c[nH]c4c(P(C)(C)=O)c(C#N)ccc34)n2)CN1 (stereo not given) + Cc1nc(NC(=O)N2CCCC2C(N)=O)sc1-c1ccnc(C(C)(C)C(F)(F)F)c1", "viability, T/C (%)": 106}
{"Compound": "CNC(=O)c1ccc(N2C(=S)N(c3ccc(C#N)c(C(F)(F)F)c3)C(=O)C2(C)C)cc1F + CC(Nc1ncnc2nc[nH]c12)c1cc2cccc(Cl)c2c(=O)n1-c1ccccc1", "viability, T/C (%)": 114}
